src = patent US20260109776A1

Recorded fold over control (gMFI) by entry
Molecular target: T1, human TNFR1 (human, UniProt P19438 30-455)
T1 construct: whole, on cells
T1 sequence (looked up): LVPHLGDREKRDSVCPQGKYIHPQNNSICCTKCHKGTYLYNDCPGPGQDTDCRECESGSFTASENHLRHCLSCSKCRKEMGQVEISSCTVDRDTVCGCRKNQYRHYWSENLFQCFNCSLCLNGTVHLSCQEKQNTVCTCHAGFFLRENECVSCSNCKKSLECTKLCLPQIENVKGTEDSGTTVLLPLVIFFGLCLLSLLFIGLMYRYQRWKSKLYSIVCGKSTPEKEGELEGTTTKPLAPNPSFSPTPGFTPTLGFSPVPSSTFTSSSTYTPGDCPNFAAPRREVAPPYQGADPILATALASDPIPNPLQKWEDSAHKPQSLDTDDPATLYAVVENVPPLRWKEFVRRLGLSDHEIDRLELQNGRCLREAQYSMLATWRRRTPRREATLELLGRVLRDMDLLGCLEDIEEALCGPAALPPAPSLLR
Assay: flow cytometry, HEK293 transfectants vs control cells
OBSERVATION_TYPE: fold over control (gMFI) (fold)

* 30A12 (antibody, IgG4, V domains shown, also called 4878-1) VH: EVQLLESGGGLVQPGGSLRLSCAASGFTFSRNAMSWVRQAPGKGLEWVSATGGSGISTYYADSVKGRFTISRDNSKNTLYLQMNSLRAEDTAVYYCARGYSNSWWYFDYWGQGTLVTVSS VL: QSALTQPASVSGSPGQSITISCTGTSSDVGNYNLVSWYQQHPGKAPKLMIFEVNQRPSGVSNRFSGSKSGTTASLTISGLQAADEADYFCCSYTTSSTYVIFGGGTKLTVLG | 1.07
* 33H9 (antibody, IgG4, V domains shown, also called 4897-1) VH: QVQLVESGGGVVQPGRSLRLSCAASGFTFSSHGMHWVRQPPGKGLEWVAVIWYDGSNEYYGDSVKGRFTISRDNSKNTLYLQMNSLRVEDTAVYYCTRGGGHWNYEGHYYGMDVWGQGTTVTVSS VL: QAVPTQPSSLSASPGASASLTCTLRSGINVGSSRIYWYQQKPGSPPQFLLRYTSDSDKLQGSGVPSRFSGSKDASANAGLLLISGLQSEDEADYYCMIWHSSAVVFGGGTKLTVLG | 1.03
* 36F3 (antibody, IgG4, V domains shown, also called 4891-1) VH: QVQLQQSGPGLVKPSQTLSLTCAISGDSVSSSRTAWNWIRQSPSRGLEWLGRTYYRSKWYHDYSVSVKSRITIDPDTSKNQFSLQLNSVTPEDTAVYYCARGAAPFDYWGQGTLVTVSS VL: EIVLTQSPGTLSLSPGERATLSCRASQSVSSNYLAWYQQKPGQAPRALIYAASNRAAGISDRFSGSGSGTDFTLTISRLEPEDFAVYFCQQYGSSPLTFGGGTKVEIKR | 0.99
* 39C2 (antibody, IgG4, V domains shown, also called 4887-1) VH: QVQLVQSGTEVKKPGASVKVSCKASGYTFPGYYMHWVRQAPGQGLEWMGWINPDSGGTKYTQKFQGRVTLTRDASVSTAYIDLNRLRSDDTAVYYCARERCRTTNCYLDYWGQGSLVTVSS VL: QSALTQPASVSGSPGQSITISCTGTSSDVGNYNLVSWYQQHPGKAPKLMIYEVNRRPSGVSNRFSGSKSGNTASLTISGLQAEDEAEYYCCSYAGRDTFVVFGGGTKLTVLG | 1
* 4G7 (antibody, IgG4, V domains shown, also called 4869-1) VH: QVQLVQSGAEVKKPGASVKVSCKASGYTFAGYYMHWVRQAPGQGLEWMGWINPDSGGTNFAQQFQGRVTMTRDTSISTAYMEVSRLRSDDTAVFYCAREKITMTGIYFDYWGQGTLVTVSS VL: DIQMTQSPSSLSASVGDILTITCRASQNITTYLNWYQQKPGKAPNLLISAASRLRSGVPSRFSGSGSGTDFTLTISSLQPVDFTTFYCQQTFTTPWTFGQGTKVEIKR | 0.97
